Values from ChEMBL document CHEMBL1126842

- system under test: Ribonucleoside-diphosphate reductase large subunit (Homo sapiens, UniProt P23921)
- Sequence (P23921 whole entry): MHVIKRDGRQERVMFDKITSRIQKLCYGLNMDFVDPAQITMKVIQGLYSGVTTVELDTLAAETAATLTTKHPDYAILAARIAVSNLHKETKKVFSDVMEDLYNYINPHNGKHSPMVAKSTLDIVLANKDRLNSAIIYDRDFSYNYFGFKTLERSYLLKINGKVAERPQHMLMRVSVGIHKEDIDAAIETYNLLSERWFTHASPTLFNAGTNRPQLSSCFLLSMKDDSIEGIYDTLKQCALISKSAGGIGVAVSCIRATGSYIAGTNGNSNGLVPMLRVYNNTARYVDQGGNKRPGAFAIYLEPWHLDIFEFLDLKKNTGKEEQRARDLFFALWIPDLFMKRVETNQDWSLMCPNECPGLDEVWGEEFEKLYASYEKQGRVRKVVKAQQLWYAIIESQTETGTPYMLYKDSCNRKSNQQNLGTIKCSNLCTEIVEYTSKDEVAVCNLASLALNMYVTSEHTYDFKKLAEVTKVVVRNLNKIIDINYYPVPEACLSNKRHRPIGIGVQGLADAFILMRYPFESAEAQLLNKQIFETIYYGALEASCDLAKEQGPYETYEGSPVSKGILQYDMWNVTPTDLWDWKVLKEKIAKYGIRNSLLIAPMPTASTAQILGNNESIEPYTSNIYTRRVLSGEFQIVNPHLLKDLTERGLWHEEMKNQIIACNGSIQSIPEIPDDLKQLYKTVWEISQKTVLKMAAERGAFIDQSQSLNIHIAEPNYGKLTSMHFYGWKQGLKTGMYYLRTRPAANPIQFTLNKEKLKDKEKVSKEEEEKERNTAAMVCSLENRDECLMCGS
- test protocol: Tested for inhibition of human ribonucleotide reductase
Where a SMILES comes first, the peptide text is derived from it. [ ]: non-standard residue; d: D form. The star is where a group is joined. Butanoyl(2-Et) = CCC(CC)C(=O)*; Tle = CC(C)(C)[C@H](N)C(=O)O; Pyrrolidide = C1CCN(*)C1
experimental endpoint: IC50

# molecule, IC50
measured = [
    ("CCC(CC)C(=O)N[C@H](C(=O)N[C@@H](CC(=O)N1CCCC1)C(=O)N[C@@H](CC(=O)O)C(=O)N[C@@H](CC(C)C)C(=O)O)C(C)(C)C ({Butanoyl(2-Et)}-[Tle]D(Pyrrolidide)DL-OH)", "> 1 mM"),
]

We now examine a further molecule.
For the molecule CCC(CC)C(=O)N[C@H](C(=O)N[C@@H](CC(=O)N1CCCC1)C(=O)N[C@@H](CC(=O)O)C(=O)N[C@@H](CC(C)C)C(=O)O)[C@@H](C)CC ({Butanoyl(2-Et)}-ID(Pyrrolidide)DL-OH) , what IC50 is on record? > 1 mM

====

- test protocol: Inhibition of Herpes simplex virus type 1 ribonucleotide reductase
- Assay type: functional, Human alphaherpesvirus 1
Where a SMILES comes first, the peptide text is derived from it. [ ]: non-standard residue; d: D form. The star is where a group is joined. Butanoyl(2-Et) = CCC(CC)C(=O)*; Tle = CC(C)(C)[C@H](N)C(=O)O; Piperidide = C1CCN(*)CC1; Pyrrolidide = C1CCN(*)C1
experimental endpoint: IC50 (µM)

A. CCC(CC)C(=O)N[C@@H](C)C(=O)N[C@@H](CC(=O)N1CCCC1)C(=O)N[C@@H](CC(=O)O)C(=O)N[C@@H](CC(C)C)C(=O)O ({Butanoyl(2-Et)}-AD(Pyrrolidide)DL-OH)
B. CCC(CC)C(=O)N[C@H](C(=O)N[C@@H](CC(=O)N1CCCCC1)C(=O)N[C@@H](CC(=O)O)C(=O)N[C@@H](CC(C)C)C(=O)O)C(C)(C)C ({Butanoyl(2-Et)}-[Tle]D(Piperidide)DL-OH)
Problem: Given the entries A and B , determine which has the lower reported IC50. Respond using the label that marks the chosen record. B
